For each of the substances below, state its CR.
- EXPERIMENTAL_DETAILS: Conversion rate (CR) assay with fluorescamine
- Assay type: physicochemical
- Design: key: % = 100−100×filtrate/original fluorescence intensity
- DETAILS: conversion rate, fluorescamine assay

Exercise: // query CR value for entry RGEKIKIQINM
Solution: 80.28

Exercise: Record: RLRLTLC
Solution: 87.44

Exercise: Record: EIEIQINM
Solution: 78.43

Exercise: Record: RGDKIKIQINM
Solution: 60.92

Exercise: Record: CKIKQII
Solution: 55

Exercise: Record: RGDKIRGDKI
Solution: 48.38

Exercise: Record: HHHHKIKIQINMYYYY
Solution: 98.42

Exercise: Record: CKAKAQA
Solution: 44

Exercise: Record: CKFKFQFW
Solution: 98.71

Exercise: Record: CKAKAQANM
Solution: 47.87

Exercise: Record: CSISIQI
Solution: 79.31

Exercise: Record: RGDCKFKFQF
Solution: 85.47

Exercise: Record: CEFEFQFNMWQ
Solution: 98.63

Exercise: Record: RGDKIKIQINMWQ
Solution: 66

Taken from paper PMC10447463.
